Target: recombinant Motavizumab human IgE (rMota-hIgE) (human) (UniProt P01854)
Sequence (P01854 other isoform, or with tags, fused parts or gaps limits assumed, form in doubt): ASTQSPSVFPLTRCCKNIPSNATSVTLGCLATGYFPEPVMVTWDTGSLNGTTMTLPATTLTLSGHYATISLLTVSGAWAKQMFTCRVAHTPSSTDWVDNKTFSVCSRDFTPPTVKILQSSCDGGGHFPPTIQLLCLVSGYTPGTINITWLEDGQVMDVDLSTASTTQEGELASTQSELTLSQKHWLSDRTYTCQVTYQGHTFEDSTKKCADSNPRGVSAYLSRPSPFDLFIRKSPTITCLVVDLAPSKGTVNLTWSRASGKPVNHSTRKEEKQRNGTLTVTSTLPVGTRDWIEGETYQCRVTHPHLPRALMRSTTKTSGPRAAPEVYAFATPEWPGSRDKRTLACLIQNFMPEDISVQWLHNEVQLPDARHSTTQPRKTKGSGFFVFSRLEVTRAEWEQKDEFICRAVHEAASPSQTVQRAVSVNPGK
Test: hIgE binding ELISA
Result Type: Ratio OD450 pH 7.4/pH 6
Reply: number alone, nothing else.

Example binders with recorded Ratio OD450 pH 7.4/pH 6:
1. CL-2C mAb 5 (antibody, V domains shown) VH: QVQLVQSGAEVMKPGSSVKVSCKASGYTFSWYWLEWVRQAPGHGLEWMGEIDPGTFTTNYNEKFKARVTFTADTSTSTAYMELSSLRSEDTAVYYCARFSHFSGSNYDYFDYWGQGTLVTVSS VL: EIVMTQSPATLSVSPGERATLSCRASQHIGTNIHWYQQKPGQAPRLLIYYASESISGIPARFSGSGSGTEFTLTISSLQSEDFAVYYCQQSWSHPTTFGGGTKVEIK : 0.73
2. CL-2C mAb 18 (antibody, V domains shown) VH: QVQLVQSGAEVMKPGSSVKVSCKASGYTFSWYHLEWVRQAPGHGLEWMGEIDPGTFTTNYNEKFKARVTFTADTSTSTAYMELSSLRSEDTAVYYCARFSHFSGSHYDYFDYWGQGTLVTVSS VL: EIVMTQSPATLSVSPGERATLSCRASQSIGTNIHWYQQKPGQAPRLLIYHASESISGIPARFSGSGSGTEFTLTISSLQSEDFAVYYCQQSDSHPTTFGGGTKVEIK : 0.97
3. CL-2C mAb 19 (antibody, V domains shown) VH: QVQLVQSGAEVMKPGSSVKVSCKASGYTFSWYHLEWVRQAPGHGLEWMGEIDPGTFTTNYNEKFKARVTFTADTSTSTAYMELSSLRSEDTAVYYCARFSHFSGHNYDYFDYWGQGTLVTVSS VL: EIVMTQSPATLSVSPGERATLSCRASQSIGTNIHWYQQKPGQAPRLLIYHASESISGIPARFSGSGSGTEFTLTISSLQSEDFAVYYCQQSDSHPTTFGGGTKVEIK : 1.04

Reported Ratio OD450 pH 7.4/pH 6, binder CL-2C mAb 14 (antibody, V domains shown) VH: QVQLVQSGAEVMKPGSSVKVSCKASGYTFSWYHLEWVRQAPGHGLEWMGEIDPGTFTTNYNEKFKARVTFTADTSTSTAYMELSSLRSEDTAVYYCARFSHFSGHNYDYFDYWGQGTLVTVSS VL: EIVMTQSPATLSVSPGERATLSCRASQSIGTNIHWYQQKPGQAPRLLIYHASESISGIPARFSGSGSGTEFTLTISSLQSEDFAVYYCQQSWSHPTTFGGGTKVEIK : ____
1.53

Reported Ratio OD450 pH 7.4/pH 6, binder CL-2C mAb 38 (antibody, V domains shown) VH: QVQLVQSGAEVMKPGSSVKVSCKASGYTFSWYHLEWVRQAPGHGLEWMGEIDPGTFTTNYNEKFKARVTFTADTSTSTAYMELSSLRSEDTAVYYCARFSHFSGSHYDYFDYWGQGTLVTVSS VL: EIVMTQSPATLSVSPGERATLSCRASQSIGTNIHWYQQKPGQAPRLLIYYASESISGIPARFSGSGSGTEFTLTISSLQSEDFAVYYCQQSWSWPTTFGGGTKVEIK : ____
4.48
